Attribution: ChEMBL document CHEMBL1649231

test system: Staphylococcus haemolyticus; assay: Antimicrobial activity against methicillin-resistant coagulase-negative Staphylococcus haemolyticus assessed as resistant isolates after 24 hrs by broth microdilution method; assay type: functional
READOUT_NAME: Activity (%)
Response body: numeric value in %, unit text excluded.

Reference set, count: 3
{"SMILES_REPRESENTATION": "CN(C)[C@@H]1C(O)=C(C(N)=O)C(=O)[C@@]2(O)C(O)=C3C(=O)c4c(O)cccc4[C@@](C)(O)[C@H]3C[C@@H]12", "READOUT_NAME": "Activity", "UNIT_NAME": "%", "NUMERIC_VALUE": 75}
{"SMILES_REPRESENTATION": "CC1(C)S[C@@H]2[C@H](NC(=O)[C@H](N)c3ccccc3)C(=O)N2[C@H]1C(=O)O", "READOUT_NAME": "Activity", "UNIT_NAME": "%", "NUMERIC_VALUE": 100}
{"SMILES_REPRESENTATION": "CC[C@H]1OC(=O)[C@H](C)[C@@H](O[C@H]2C[C@@](C)(OC)[C@@H](O)[C@H](C)O2)[C@H](C)[C@@H](O[C@@H]2O[C@H](C)C[C@H](N(C)C)[C@H]2O)[C@](C)(O)C[C@@H](C)C(=O)[C@H](C)[C@@H](O)[C@]1(C)O", "READOUT_NAME": "Activity", "UNIT_NAME": "%", "NUMERIC_VALUE": 74}

Consider the additional compound presented here.
// Activity value for Cc1onc(-c2ccccc2)c1C(=O)N[C@@H]1C(=O)N2[C@@H]1SC(C)(C)[C@@H]2C(=O)O : 74

----------
test system: Staphylococcus hominis; assay: Antimicrobial activity against methicillin-resistant coagulase-negative Staphylococcus hominis after 24 hrs by broth microdilution method; type: functional
READOUT_NAME: MIC50
Be sure to follow the number with its unit.

Reference set, count: 2
{"MOLECULE": "Cc1onc(-c2ccccc2)c1C(=O)N[C@@H]1C(=O)N2[C@@H]1SC(C)(C)[C@@H]2C(=O)O [OXACILLIN]", "EXPERIMENTAL_TARGET": "Staphylococcus hominis", "MIC50": "64 µg/mL"}
{"MOLECULE": "Cc1ccc(C(C)C)c(O)c1 [THYMOL]", "EXPERIMENTAL_TARGET": "Staphylococcus hominis", "MIC50": "64 µg/mL"}

// MIC50 value for COc1cc(O)c(C(=O)[C@@H]2[C@H](CC=C(C)C)C(C)=CC[C@H]2c2ccccc2)c(O)c1 [PANDURATIN A] : 0.25 µg/mL

// MIC50 value for C[C@H]1COc2c(N3CCN(C)CC3)c(F)cc3c(=O)c(C(=O)O)cn1c23.C[C@H]1COc2c(N3CCN(C)CC3)c(F)cc3c(=O)c(C(=O)O)cn1c23.O [LEVOFLOXACIN] : 0.25 µg/mL

// MIC50 value for CC(=O)NC[C@H]1CN(c2ccc(N3CCOCC3)c(F)c2)C(=O)O1 [LINEZOLID] : 0.25 µg/mL

// MIC50 value for CC[C@H]1OC(=O)[C@H](C)[C@@H](O[C@H]2C[C@@](C)(OC)[C@@H](O)[C@H](C)O2)[C@H](C)[C@@H](O[C@@H]2O[C@H](C)C[C@H](N(C)C)[C@H]2O)[C@](C)(O)C[C@@H](C)C(=O)[C@H](C)[C@@H](O)[C@]1(C)O [ERYTHROMYCIN] : 16 µg/mL
